Hey, just so you know, these numbers are from paper PMC9283305.

target under test: R84E (Homo sapiens, UniProt Q8WWM9, R84E)
protocol notes: UV-Vis difference spectroscopy titration of ferric cytoglobin
experimental context: SD, n = 3
measured attribute: Kd (µM)

>>> observed_measurement("CCCCCCCC/C=C\\CCCCCCCC(=O)O")
170

----------
target under test: K116E (Homo sapiens, UniProt Q8WWM9, K116E)
Sequence (Q8WWM9 whole entry K116E): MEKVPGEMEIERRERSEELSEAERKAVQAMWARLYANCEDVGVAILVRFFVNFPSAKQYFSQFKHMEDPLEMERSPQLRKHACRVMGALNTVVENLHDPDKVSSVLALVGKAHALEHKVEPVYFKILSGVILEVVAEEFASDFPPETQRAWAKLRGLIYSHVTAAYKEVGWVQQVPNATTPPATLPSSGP
protocol notes: UV-Vis difference spectroscopy titration of ferric cytoglobin
Assay type: binding
experimental context: SD, n = 3
measured attribute: Kd (µM)

>>> observed_measurement("CCCCCCCC/C=C\\CCCCCCCC(=O)O")
62

----------
target under test: H81Q (Homo sapiens, UniProt Q8WWM9, H81Q)
Sequence (Q8WWM9 whole entry H81Q): as the sequence (Q8WWM9 whole entry K116E) above, with H81Q, E116K counted along it
protocol notes: UV-Vis difference spectroscopy titration of ferric cytoglobin
Format: binding
experimental context: SD, n = 3
pKd: −log10 of the molar value.
measured attribute: pKd

>>> observed_measurement("CCCCCCCC/C=C\\CCCCCCCC(=O)O")
4.34

----------
target under test: H81L (Homo sapiens, UniProt Q8WWM9, H81L)
Sequence (Q8WWM9 whole entry H81L): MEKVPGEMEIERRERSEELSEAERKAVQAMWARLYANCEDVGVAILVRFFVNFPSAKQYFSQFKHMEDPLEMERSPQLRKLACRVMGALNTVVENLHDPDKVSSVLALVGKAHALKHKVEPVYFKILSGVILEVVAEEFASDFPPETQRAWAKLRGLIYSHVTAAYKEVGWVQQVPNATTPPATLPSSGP
protocol notes: UV-Vis difference spectroscopy titration of ferric cytoglobin
Assay type: binding
experimental context: SD, n = 3
pKd: −log10 of the molar value.
measured attribute: pKd

>>> observed_measurement("c1c[nH]cn1")
4.63

----------
target under test: H81A (Homo sapiens, UniProt Q8WWM9, H81A)
Sequence (Q8WWM9 whole entry H81A): as the sequence (Q8WWM9 whole entry H81L) above, with L81A counted along it
protocol notes: UV-Vis difference spectroscopy titration of ferric cytoglobin
Format: binding
experimental context: SD, n = 3
measured attribute: Kd

>>> observed_measurement("CCCCCCCC/C=C\\CCCCCCCC(=O)O")
"24 µM"

----------
target under test: H81L (Homo sapiens, UniProt Q8WWM9, H81L)
protocol notes: UV-Vis difference spectroscopy titration of ferric cytoglobin
Assay type: binding
experimental context: SD, n = 3
measured attribute: Kd (µM)

>>> observed_measurement("CCCCCCCC/C=C\\CCCCCCCC(=O)O")
36

----------
target under test: UniProt Q8WWM9
protocol notes: UV-Vis difference spectroscopy titration of ferric cytoglobin
Type: binding
experimental context: SD, n = 3
measured attribute: Kd (µM)

>>> observed_measurement("CCCCCCCC(=O)O [Octanoic acid, octanoic acid, added as sodium octanoate]")
1590

----------
target under test: L108Q (Homo sapiens, UniProt Q8WWM9, L108Q)
protocol notes: UV-Vis difference spectroscopy titration of ferric cytoglobin
experimental context: SD, n = 3
pKd: −log10 of the molar value.
measured attribute: pKd

>>> observed_measurement("CCCCCCCC/C=C\\CCCCCCCC(=O)O")
4.85

----------
target under test: H81Q (Homo sapiens, UniProt Q8WWM9, H81Q)
protocol notes: UV-Vis difference spectroscopy titration of ferric cytoglobin
Type: binding
experimental context: SD, n = 3
pKd: −log10 of the molar value.
measured attribute: pKd

>>> observed_measurement("CCCCCCCC(=O)O [Octanoic acid, octanoic acid, added as sodium octanoate]")
3.60

----------
target under test: V105Y (Homo sapiens, UniProt Q8WWM9, V105Y)
Sequence (Q8WWM9 whole entry V105Y): as the sequence (Q8WWM9 whole entry K116E) above, with V105Y, E116K counted along it
protocol notes: UV-Vis difference spectroscopy titration of ferric cytoglobin
experimental context: SD, n = 3
pKd: −log10 of the molar value.
measured attribute: pKd

>>> observed_measurement("CCCCCCCC/C=C\\CCCCCCCC(=O)O")
5.32

----------
target under test: H81W (Homo sapiens, UniProt Q8WWM9, H81W)
Sequence (Q8WWM9 whole entry H81W): as the sequence (Q8WWM9 whole entry K116E) above, with H81W, E116K counted along it
protocol notes: UV-Vis difference spectroscopy titration of ferric cytoglobin
Type: binding
experimental context: SD, n = 3
measured attribute: Kd (µM)

>>> observed_measurement("CCCCCCCC(=O)O [Octanoic acid, octanoic acid, added as sodium octanoate]")
140
